// provenance: PubChem BioAssay

# assayedTarget: Homeobox protein Hox-A13 (Mus musculus) (UniProt Q62424)
# Sequence (Q62424 whole entry, looked up): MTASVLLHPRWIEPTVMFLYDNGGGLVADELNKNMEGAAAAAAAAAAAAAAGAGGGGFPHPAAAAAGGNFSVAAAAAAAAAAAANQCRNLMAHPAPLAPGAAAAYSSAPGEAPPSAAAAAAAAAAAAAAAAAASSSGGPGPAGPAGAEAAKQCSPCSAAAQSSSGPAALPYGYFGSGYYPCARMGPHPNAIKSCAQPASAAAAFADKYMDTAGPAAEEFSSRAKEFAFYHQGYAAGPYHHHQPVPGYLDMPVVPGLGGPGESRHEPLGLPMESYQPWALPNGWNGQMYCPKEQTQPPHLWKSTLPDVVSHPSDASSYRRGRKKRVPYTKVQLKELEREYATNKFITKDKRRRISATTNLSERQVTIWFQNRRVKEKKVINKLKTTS
# assayComment: inhibitors of HoxA13-DNA binding, primary screen, biochemical, fluorescence polarization, labeled oligonucleotide (AID 1185)
# testConditions: 15 min, higher = more signal, called active from +8 up or from −8 down
Exercise: state measured z-score for each of the compounds provided.
Quick one: just the number, no unit, thanks!

State z-score (Homeobox protein Hox-A13 (Mus musculus) (UniProt Q62424)) of "COCC1=C2[C@@H](CCc3ccccc3)OB(O)C[C@@H]2n2c(=O)n(-c3ccccc3)c(=O)n2C1" .
-4.79

State z-score (Homeobox protein Hox-A13 (Mus musculus) (UniProt Q62424)) of "COC(=O)[C@@]1(Cc2ccc(F)cc2)[C@@H]2C(=CC(=O)[C@H]2CC(=O)C(=O)N(C)C)CN1C(=O)c1ccccc1" .
-2.5

State z-score (Homeobox protein Hox-A13 (Mus musculus) (UniProt Q62424)) of "CC=CC1=C(CO)[C@H](O)[C@H]2O[C@H]2[C@H]1O" .
-0.532

State z-score (Homeobox protein Hox-A13 (Mus musculus) (UniProt Q62424)) of "CC(C)CON=C1C[C@@H](O)[C@@H](O)[C@@H]2[C@@H]3C(=O)N([C@@H](C)c4ccccc4)C(=O)[C@@H]3CC[C@H]12" .
0.0364

###

# System: wheat germ agglutinin (Triticum aestivum), Alexa647-labelled
# assayComment: wheat germ agglutinin binders on compound microarrays, profiling panel, artefact control for SMM control-protein annotation, biochemical, small-molecule microarray, 635/667 nm fluorescence (AID 1140);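 note: score merges 667 nm feature emission with signal to noise over triplicate slides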
# testConditions: WGA-A647 binding, 635 nm fluorescence, higher = more signal
assayReadout: composite z-score
Quick one: just the number, no unit, thanks!

Report composite z-score, nothing else, for this compound: "CCOC(=O)C[C@H]1[C@H](OC(=O)c2cc3ccccc3oc2=O)[C@@H](NC(=O)c2ccc3ccccc3n2)c2cc(OCCCO)ccc2N1C(=O)c1ccccc1"
0.354

Report composite z-score, nothing else, for this compound: "C[C@@H]1CC[C@H]2C(=O)O[C@H](COc3ccc(C(C)(C)C)cc3)CN2[C@H]1c1ccc(Br)cc1"
0.148

Report composite z-score, nothing else, for this compound: "CC(C)CN1CCc2nc(-c3ccccc3)c3c(c2CC1)CO[C@@H](C)C3"
0.22

Report composite z-score, nothing else, for this compound: CN1C(=O)C2C=CC(C(O)c3ccc(Br)cc3)N(N(c3ccccc3)c3ccccc3)C2C1=O (stereo not given)
0.585

Report composite z-score, nothing else, for this compound: "CO[C@@H]1COC(=O)CC=C[C@@H](C)COC(=O)[C@H](COCc2ccccc2)NC(=O)CC=C[C@H]1C"
-0.672

Report composite z-score, nothing else, for this compound: "C[C@H](c1ccccc1)N1C(=O)[C@H]2[C@@H]3C(=CC[C@H]2C1=O)C(=O)[C@H]1O[C@H]1[C@H]3O"
-0.0651

Report composite z-score, nothing else, for this compound: O=C1CCCC=C1C(O)CCOCc1ccccc1 (stereo not given)
-0.123

Report composite z-score, nothing else, for this compound: "CC[C@@H](c1ccccc1)n1c(=O)n2n(c1=O)[C@H]1[C@H](O)[C@@H]3O[C@@H]3C(=NOCC(C)C)[C@H]1CC2"
-0.0401

Report composite z-score, nothing else, for this compound: "COc1ccc(COC(=O)NN=C2C[C@@H](O)[C@@H](O)[C@@H]3[C@@H]4C(=O)N(c5ccc(F)cc5F)C(=O)[C@@H]4CC[C@@H]23)cc1"
0.744

Report composite z-score, nothing else, for this compound: "CC(CCN1CCc2nc(-c3ccccc3)c(-c3ccccc3)cc2C1)=NO[C@H](C)c1cn([C@@H]2COC[C@H]2O)nn1"
0.224

Report composite z-score, nothing else, for this compound: "COc1cccc([C@H]2Oc3ccc(OC)cc3C(=NO[C@H](C)c3cn([C@@H]4COC[C@H]4O)nn3)[C@@H]2O)c1"
0.0665

Report composite z-score, nothing else, for this compound: "[N-]=[N+]=NCc1ccccc1[C@@H]1OC(c2ccc(OCCCO)cc2)=N[C@]1(Cc1ccccc1)C(=O)N1CCOCC1"
1.26

Report composite z-score, nothing else, for this compound: "CC(C)[C@@H](OCc1ccccc1)[C@H](C)C=NOC[C@@H](C)[C@H](OCc1ccccc1)C(C)C"
-0.0388

Report composite z-score, nothing else, for this compound: "CCCNC(=O)[C@@H]1c2ccccc2C(=O)N(Cc2ccccc2Cl)[C@H]1c1ccc(CO)cc1"
1.09

Report composite z-score, nothing else, for this compound: "CC(=O)OC[C@H]1O[C@H](CC=NOC[C@@H](C)[C@H](OCc2ccccc2)C(C)C)C=C[C@@H]1OC(C)=O"
-0.21

Report composite z-score, nothing else, for this compound: "COC(=O)[C@@]1(Cc2ccc(F)cc2)[C@H]2c3cc(C(=O)N(C)C)n(Cc4ccc(OC)c(OC)c4)c3C[C@H]2CN1C(=O)c1ccccc1"
0.63

Report composite z-score, nothing else, for this compound: "C=CCN1C(=O)[C@]2(O[C@H](CCn3cc(CCO)nn3)[C@@H]([Si](C)(C)c3ccc(OC)cc3)[C@@H]2C)c2cc(N3CCOC3=O)ccc21"
0.574

Report composite z-score, nothing else, for this compound: COC(=O)[C@H](C)NC(=O)CCC1CC(OC(=O)NCc2cccc3ccccc23)CC2(CCCC(COC(=O)NCC3CCCCC3)O2)O1 (stereo not given in full)
0.487

Report composite z-score, nothing else, for this compound: CCOc1ccc(N2C(=O)/C(=C/C=C/c3ccccc3OC)S(=O)(=O)C2c2cccc([N+](=O)[O-])c2)cc1 (stereo not given)
0.432

Report composite z-score, nothing else, for this compound: "CC(C)[C@@H](OCc1ccccc1)[C@H](C)C=NO[C@H](C)c1cn([C@H](CO)Cc2ccccc2)nn1"
0.106

Report composite z-score, nothing else, for this compound: "CCCCCCc1nc(CCCc2cc3c(c(CCCCCC)n2)[Si](C(C)C)(C(C)C)O[C@H]3c2ccccc2)cc2c1[Si](C(C)C)(C(C)C)O[C@H]2c1ccccc1"
-0.0778

Report composite z-score, nothing else, for this compound: "CC(=O)OC[C@H]1O[C@H](CCON=C(C)CCC(=O)OC[C@H]2O[C@H](C#Cc3ccccc3)C=C[C@@H]2Oc2ccc(C)cc2)C=C[C@@H]1OC(C)=O"
0.0698

Report composite z-score, nothing else, for this compound: "CCCNC(=O)OC[C@H]1O[C@H](CCON=CC[C@@H]2C=C[C@H](OC(C)=O)[C@@H](COC(C)=O)O2)C=C[C@@H]1Oc1ccc(OC)cc1"
0.462

Report composite z-score, nothing else, for this compound: "CC(C)(C)N1C(=O)[C@H]2[C@H]3[C@H](O)[C@H](O)CC(=NO[C@@H]4O[C@H](CO)[C@@H](O)[C@H](O)[C@H]4O)[C@@H]3CC[C@H]2C1=O"
0.398

Report composite z-score, nothing else, for this compound: "CO[C@H]1O[C@H](CO)[C@@H](OC(=O)Nc2ccc(C#N)cc2)[C@H](OC(=O)c2cc3ccccc3[nH]2)[C@H]1OC(=O)c1cc2ccccc2[nH]1"
0.955

Report composite z-score, nothing else, for this compound: "C[C@@H]1C=CCC(=O)OC[C@H](C)C(=O)N[C@@H](C)C(=O)OC1"
-0.323

Report composite z-score, nothing else, for this compound: "COC(=O)[C@@H]1N=C(c2ccc(OCCCO)cc2)O[C@@H]1c1ccccc1N=[N+]=[N-]"
1.04

Report composite z-score, nothing else, for this compound: "COC(=O)CC=C[C@@H](C)[C@@H](C=NO[C@@H](C)c1cc(-c2c(C)cc(C)cc2C)no1)OC"
-1.03

Report composite z-score, nothing else, for this compound: "COCCCNC(=O)[C@@]1(Sc2ccc(C)cc2)CC(=O)N(Cc2ccccc2)[C@@H]1c1ccc(CO)cc1I"
-0.308

Report composite z-score, nothing else, for this compound: "CCOC(=O)CCN1C(=O)[C@H]2[C@H]3[C@H](O)[C@H](O)CC(=NOCc4ccccc4)[C@@H]3CC[C@H]2C1=O"
-0.0855
